- ASSAY_PROTOCOL: NCI Yeast Anticancer Drug Screen. Data for the sgs1 mgt1 strain (AID 161);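 also: 0% = growth of cultures given vehicle only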
- CONDITIONS: S. cerevisiae sgs1 mgt1 strain, at 50.0 µM, active compounds read high
Compounds without any hit were thinned out: in the full panel of roughly 79,000, 15% have a hit. Active and inactive are the calls of the source. Rule as the data show it: active = growth inhibition above about 70%; inactive = the rest.
Quick reference: growth inhibition of the listed items.
PROPERTY_MEASURED: growth inhibition

{"COMPOUND": "N#CCCn1cnc2c(Cl)ncnc21", "REPORTED_MEASUREMENT": "-18.2% (inactive)"}
{"COMPOUND": "Cc1nc(NCc2ccco2)nc(NCc2ccco2)c1[N+](=O)[O-]", "REPORTED_MEASUREMENT": "-5.85% (inactive)"}
{"COMPOUND": "CC(=O)N/N=C(\\N)c1nc2c(n3nc(C)nc13)CCCC2", "REPORTED_MEASUREMENT": "-1.2% (inactive)"}
{"COMPOUND": "O=C1C2CCCCC2C(=O)N1O (centres undefined)", "REPORTED_MEASUREMENT": "18.8% (inactive)"}
{"COMPOUND": "CCN(CC)C(=S)SCCCS(=O)(=O)O", "REPORTED_MEASUREMENT": "1.75% (inactive)"}
{"COMPOUND": "OC1COCOC1C(O)C1OCOCC1O (centres undefined)", "REPORTED_MEASUREMENT": "7.85% (inactive)"}
{"COMPOUND": "Cc1ccc(Br)cc1C(=O)O", "REPORTED_MEASUREMENT": "15.2% (inactive)"}
{"COMPOUND": "CCCC(=O)OCCCCC1CCCO1 (centres undefined)", "REPORTED_MEASUREMENT": "8.75% (inactive)"}
{"COMPOUND": "CC1CCCCC12OCCO2 (centres undefined)", "REPORTED_MEASUREMENT": "3.3% (inactive)"}
{"COMPOUND": "CCN(CC)CCCNc1ccc(-c2cc(OC)cc3cccnc23)cc1", "REPORTED_MEASUREMENT": "-0.05% (inactive)"}
{"COMPOUND": "O=c1nc2sc3ccccc3c(=O)n2[nH]1", "REPORTED_MEASUREMENT": "-2.85% (inactive)"}
{"COMPOUND": "COC(C)(C)C(Br)C(=O)OCC(=O)c1ccc(Br)cc1 (centres undefined)", "REPORTED_MEASUREMENT": "11% (inactive)"}
{"COMPOUND": "Cc1cn(C2CC(N(C)O)C(CO)O2)c(=O)[nH]c1=O (centres undefined)", "REPORTED_MEASUREMENT": "-8.15% (inactive)"}
{"COMPOUND": "BrCCOc1ccccc1", "REPORTED_MEASUREMENT": "-28.6% (inactive)"}

###

- ASSAY_PROTOCOL: NCI Yeast Anticancer Drug Screen. Data for the mlh1 rad18 strain (AID 175)
- CONDITIONS: S. cerevisiae mlh1 rad18 strain growth inhibition; at 50.0 µM; active compounds read high
The panel holds about 79,000 compounds, 15% with a hit somewhere; the sample as a whole holds those more often. Calls of active or inactive are those of the source. No stated cut-off is given here; in the data, active means growth inhibition above about 70%; inactive means the rest.
Quick reference: growth inhibition of the listed items.

{"COMPOUND": "C[C@@H]1C(=O)CC2(O)[C@@]13C[C@@H](OC(=O)[C@@H]3O)[C@@H](C)[C@@]21COC1=O (stereo partly drawn)", "growth inhibition": "-47.1% (inactive)"}
{"COMPOUND": "O=C(CSSCC(=O)Nc1ccccc1O)Nc1ccccc1O", "growth inhibition": "-4.85% (inactive)"}
{"COMPOUND": "CCOC(=O)c1ccc2c(c1)CCC(C)(C)O2", "growth inhibition": "-7.15% (inactive)"}
{"COMPOUND": "CC(=O)NCCc1ccc(C(=O)O)cc1", "growth inhibition": "3.65% (inactive)"}
{"COMPOUND": "CCOC(=O)/C=C1\\CCCC12OCCO2", "growth inhibition": "-6.1% (inactive)"}
{"COMPOUND": "CCOC1C=CCCC1 (stereo not drawn)", "growth inhibition": "-14% (inactive)"}
{"COMPOUND": "COCC1C(COC)C2CCC1C2(Cc1ccccc1)Cc1ccccc1 (stereo not drawn)", "growth inhibition": "-7.2% (inactive)"}
{"COMPOUND": "Nc1nc(Cl)c(Cl)nc1C(=O)O", "growth inhibition": "-1.15% (inactive)"}
{"COMPOUND": "O=C(NI1OC(=O)c2ccccc21)c1ccc(Cl)cc1", "growth inhibition": "-5.6% (inactive)"}
{"COMPOUND": "Cc1cc2c(=O)[nH]cnc2[nH]1", "growth inhibition": "-1.15% (inactive)"}
{"COMPOUND": "O=C1CSC(=S)N1.[Cu+2]", "growth inhibition": "4.3% (inactive)"}
{"COMPOUND": "COc1cc2cc(-c3ccccn3)nc(N)c2cc1OC", "growth inhibition": "9.95% (inactive)"}
{"COMPOUND": "Cc1[nH]c(/N=C/c2ccc(N(C)C)cc2)c(C#N)c1C", "growth inhibition": "-7.75% (inactive)"}

###

Quick reference: growth inhibition of the listed items.
- ASSAY_PROTOCOL: NCI Yeast Anticancer Drug Screen. Data for the cln2 rad14 strain (AID 165);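 also: 0% = growth equal to vehicle treated cultures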
- CONDITIONS: S. cerevisiae cln2 rad14 strain, at 50.0 µM, active compounds read high
- Procedure: Growth inhibition of yeast strains with defined genetic alterations is measured as a screen for potential anti-cancer activity. Selected strains with alterations in DNA damage repair or cell cycle control were exposed to compounds and growth inhibition was measured relative to vehicle treated controls. The strain used in this assay is cln2 rad14
Compounds without any hit were thinned out: in the full panel of roughly 79,000, 15% have a hit. Where a SMILES comes first, the peptide text is derived from it. The star is where a group is joined. Boc = CC(C)(C)OC(=O)*
PROPERTY_MEASURED: growth inhibition (%)

{"MOLECULE": "O=C(CSCSCC(=O)Nc1ccc(C2=NCCN2)cc1)Nc1ccc(C2=NCCN2)cc1", "REPORTED_MEASUREMENT": -6.1}
{"MOLECULE": "CN(N=O)C(=O)NCCc1ccccc1", "REPORTED_MEASUREMENT": -36.6}
{"MOLECULE": "Nc1cccnc1NCC(O)c1ccccc1 (centres undefined)", "REPORTED_MEASUREMENT": -12.6}
{"MOLECULE": "CC(O)CN1CCN(CN(CC(C)O)CC(C)O)CC1 (centres undefined)", "REPORTED_MEASUREMENT": -2.65}
{"MOLECULE": "Nc1nc(N)nc(-c2ccccc2-c2nc(N)nc(N)n2)n1", "REPORTED_MEASUREMENT": -18}
{"MOLECULE": "CCn1ncc2c1nc(-c1ccccc1)c[n+]2[O-]", "REPORTED_MEASUREMENT": -12.4}
{"MOLECULE": "NC(=O)/C(=N/O)c1ccccc1", "REPORTED_MEASUREMENT": 1.25}
{"MOLECULE": "O=C1C(=C(C(F)(F)Cl)C(F)(F)Cl)C2CCC1C2 (centres undefined)", "REPORTED_MEASUREMENT": 14.6}
{"MOLECULE": "COc1cccc(/C=C\\C(=O)c2ccccc(=O)c2O)c1OC", "REPORTED_MEASUREMENT": -5.4}
{"MOLECULE": "O=C1N=C(C=c2ccc(=Cc3[nH]c(=O)[nH]c3O)cc2)C(=O)N1", "REPORTED_MEASUREMENT": 13.9}
{"MOLECULE": "CCCCOc1ccc(Br)cc1", "REPORTED_MEASUREMENT": 8.1}
{"MOLECULE": "CNC(=O)NS(=O)(=O)c1cccc([N+](=O)[O-])c1", "REPORTED_MEASUREMENT": 1.9}
{"MOLECULE": "CC(=O)OCC1OC(n2cnc3c(=S)nc[nH]c32)C(OC(C)=O)C1N(C)C(C)=S (centres undefined)", "REPORTED_MEASUREMENT": 9.85}
{"MOLECULE": "Oc1ccc(OCc2ccccc2)cc1CN1CCOCC1", "REPORTED_MEASUREMENT": 7.15}
{"MOLECULE": "O=C1OC(=O)C2C1C1c3ccccc3C2(O)c2ccccc21 (centres undefined)", "REPORTED_MEASUREMENT": 2.95}
{"MOLECULE": "CCOC(=O)Cc1cccnc1N", "REPORTED_MEASUREMENT": -3.9}
{"MOLECULE": "CC(C)C(NC(=O)OC(C)(C)C)C(=O)N1CCCC1C(=O)O (stereo not drawn) (Boc-Val-Pro-OH; configuration not given here)", "REPORTED_MEASUREMENT": 3.3}
{"MOLECULE": "COc1cc(O)c(C(=O)CC(C)=O)c(OC)c1", "REPORTED_MEASUREMENT": -0.9}
{"MOLECULE": "COC(=O)/C=C/C(=O)N1CC(C)N(C(=O)/C=C/C(=O)OC)CC1C (centres undefined)", "REPORTED_MEASUREMENT": 37.4}
{"MOLECULE": "Nc1ccn(C2OC(CO)C(O)C2Br)c(=O)n1 (centres undefined)", "REPORTED_MEASUREMENT": -12}
{"MOLECULE": "O=C(O)c1ccc(Cl)c(C(=O)O)c1", "REPORTED_MEASUREMENT": 3.15}
{"MOLECULE": "Cc1cc(C)c(OC(=O)c2ccc(C(=O)Oc3c(C)cc(C)cc3C)cc2)c(C)c1", "REPORTED_MEASUREMENT": 0.25}
{"MOLECULE": "CC(Oc1ccc(OCC2CCCCC2)cc1)C(=O)OCC(=O)c1ccc(-c2ccccc2)cc1 (centres undefined)", "REPORTED_MEASUREMENT": -3.15}
{"MOLECULE": "O=c1[nH]cc(N=Cc2ccccc2O)c(=O)[nH]1.[Cl][Pt]", "REPORTED_MEASUREMENT": 3.35}
